# System: BJ-TERT RAS-dependent fibroblast cytotoxicity, fluorescence
# ASSAY PROTOCOL: killing of RAS-driven BJ-TERT cells – cell-based, fluorescence viability readout, dose response (AID 2635)
Inconclusive results are not listed. The source made the active and inactive calls. The rule behind the calls is not given here.
Pick one and only one: active, inactive

Solved cases (4 shown):
SMILES TEXT | SYSTEM UNDER TEST | LABEL VALUE
O=C(CCN1C(=O)/C(=C\c2cccc(Br)c2)SC1=S)NCCCN1CCOCC1 | BJ-TERT RAS-dependent fibroblast cytotoxicity, fluorescence | inactive
O=C(COc1ccc(Cl)cc1)Nc1ccc(C(=O)NCc2cccnc2)cc1 | BJ-TERT RAS-dependent fibroblast cytotoxicity, fluorescence | inactive
O=S(=O)(c1ccc2c(c1)C(=NO)c1cc(S(=O)(=O)N3CCCCC3)ccc1-2)N1CCCCC1 | BJ-TERT RAS-dependent fibroblast cytotoxicity, fluorescence | active
CC1=CC(=O)C=C(C)C1=NOc1ccccc1[N+](=O)[O-] | BJ-TERT RAS-dependent fibroblast cytotoxicity, fluorescence | inactive

INPUT: // param item: Cc1cccnc1Nc1nc(-c2ccccn2)cs1 ; yields the recorded call
OUTPUT: active

----------
# Tested on: BJ-TERT RAS-dependent fibroblast cytotoxicity, fluorescence
# ASSAY PROTOCOL: killing of RAS-driven BJ-TERT cells – cell-based, fluorescence viability readout, dose response (AID 2635)
Records with an inconclusive call do not appear. Calls of active or inactive are those of the source. No rule for the calls is given here.
Pick from active, inactive when you respond.

INPUT: Returns: the outcome recorded for CC(=O)Nc1ccc(NC(=O)CN(c2cccc([N+](=O)[O-])c2)S(C)(=O)=O)cc1 in this assay.
OUTPUT: inactive

INPUT: Lab log entry: CCc1ccc(/C=C2/SC(=S)N(CCC(=O)Nc3cccnc3)C2=O)cc1 — outcome as called in the assay?
OUTPUT: inactive

INPUT: Name the outcome recorded for CCN(CC)c1ccc(/C=N/NC(=O)c2nnn(-c3nonc3N)c2C(C)C)c(O)c1 in the assay.
OUTPUT: active

INPUT: Tell me the recorded outcome of this test for CCc1ccc(/C=C2/SC(=S)N(CCC(=O)NCCCN3CCOCC3)C2=O)cc1 .
OUTPUT: inactive

INPUT: Kindly provide the recorded test outcome for the following compound: Cc1cccc(OCC(=O)Nc2ccc(C(=O)NCc3cccnc3)cc2)c1
OUTPUT: inactive

INPUT: Outcome logged for CC(C)(C)c1ccc(C(=O)Nc2ccc(C(=O)NCc3cccnc3)cc2)cc1 in this assay:
OUTPUT: inactive

----------
# Test system: BJ-TERT RAS-dependent fibroblast cytotoxicity, fluorescence
# ASSAY PROTOCOL: killing of RAS-driven BJ-TERT cells – cell-based, fluorescence viability readout, dose response (AID 2635)
Inconclusive results are not listed. Activity calls are given as the source filed them. No rule for the calls is given here.
Field 'call' accepts True = active, False = inactive

Solved entries (count: 5):
COMPOUND | LABEL VALUE
O=C(CCl)N=c1sccn1Cc1ccccc1Cl | False
CC(Oc1ccc(Cl)cc1Cl)c1nc(-c2ccc(NC(=O)c3cccnc3)cc2)no1 (stereo not given) | False
O=C(NCc1cccnc1)c1ccc(NC(=O)c2ccc([N+](=O)[O-])cc2)cc1 | False
O=C(NCc1cccnc1)c1ccc(NC(=O)c2cccc([N+](=O)[O-])c2)cc1 | False
COC(=O)[C@@H]1Cc2c([nH]c3ccccc23)C(C)(C)N1C(=O)CCl | False

INPUT: // outcome(item) with item = COc1ccc(C[C@H]2NC[C@H](O)[C@H]2OC(C)=O)cc1
OUTPUT: True

INPUT: I would be grateful if you could indicate the recorded call for O=C(CCCCCN1C(=O)c2cccc3cccc(c23)C1=O)NCc1cccnc1 .
OUTPUT: False

INPUT: Could you kindly confirm the outcome this assay logged for CCc1ccc(/C=C2\SC(=S)N(CCC(=O)NCCCN3CCOCC3)C2=O)cc1 ?
OUTPUT: False

INPUT: What outcome does the record of this test show for Cc1ccc(Nc2nc(N)nc(CCl)n2)c(C)c1 ?
OUTPUT: False

INPUT: What outcome does the record of this test show for COc1ccc(N(C(=O)CCl)C(C(=O)NCCc2ccccc2)c2cccs2)cc1Cl (stereo not given) ?
OUTPUT: False

----------
# System: BJ-TERT RAS-dependent fibroblast cytotoxicity, fluorescence
# ASSAY PROTOCOL: killing of RAS-driven BJ-TERT cells – cell-based, fluorescence viability readout, dose response (AID 2635)
Records with an inconclusive call do not appear. The source made the active and inactive calls. The rule behind the calls is not given here.
Choose one outcome from this list and give only that: 1.0 for active, 0.0 for inactive

Solved entries:
SMILES TEXT | LABEL VALUE
Cc1ccc(C(=O)Sc2cccccc2=O)cc1 | 1.0
C/C(=N\Nc1ccc2nncn2n1)c1ccccn1 | 1.0
CC(C)C(=O)Nc1ccc(C(=O)NCc2cccnc2)cc1 | 0.0
CC(C)(C)c1nnc(N/N=C/c2cc(Br)ccc2O)n(N)c1=O | 1.0
CCOc1ccc(CC(=O)Nc2ccc(NC(=O)c3ccco3)cc2)cc1OCC | 0.0

INPUT: GET /call?item= O=S(=O)(c1ccc(NC(=S)NCc2cccnc2)cc1)N1CCCCC1 returns the recorded outcome of this test.
OUTPUT: 0.0

INPUT: Dear colleague, could you share the recorded outcome for Cc1cccc(Nc2nc(N)nc(CCl)n2)c1 when you have a moment?
OUTPUT: 0.0

INPUT: Per the assay record, what outcome was assigned to CC[C@@]1(O)C(=O)OCc2c1cc1n(c2=O)Cc2cc3c(NC(=O)CN)cccc3nc2-1 ?
OUTPUT: 1.0

INPUT: GET /call?item= CC[C@@]1(O)C(=O)OCc2c1cc1n(c2=O)Cc2cc3ccccc3nc2-1 returns the recorded outcome of this test.
OUTPUT: 1.0

INPUT: Field: outcome | Entry: C=C1C(=O)O[C@@H]2C[C@@H](C)[C@@H]3C=CC(=O)[C@@]3(C)[C@@H](OC(=O)CC(=O)O[C@H]3[C@@H]4C(=C)C(=O)O[C@@H]4C[C@@H](C)[C@@H]4C=CC(=O)[C@]43C)[C@H]12
OUTPUT: 1.0

----------
# System: BJ-TERT RAS-dependent fibroblast cytotoxicity, fluorescence
# ASSAY PROTOCOL: killing of RAS-driven BJ-TERT cells – cell-based, fluorescence viability readout, dose response (AID 2635)
Results filed as inconclusive are left out. Active and inactive are the calls of the source. How the calls were made is not given here.
Entry note: the call must match one of T = active, F = inactive

As a guide, the following entries are already answered.
SMILES TEXT | LABEL VALUE
Nc1nc(CCl)nc(Nc2cccc3ccccc23)n1 | F
CN1CCN(C(=O)CCCN2C(=O)/C(=C/c3cccc(Br)c3)SC2=S)CC1 | F
CC[C@@]1(O)C(=O)OCc2c1cc1n(c2=O)Cc2cc3c(N)cccc3nc2-1 | T

Continue with the compound presented below.
INPUT: Hi, do you know how Cc1ccccc1Nc1nc(N)nc(CCl)n1 came out in this test?
OUTPUT: F
